- Test system: A498 renal
- assay-name: NCI tumour cell line growth inhibition, 48 h
parameter-measured: log10 TGI (log10 of the value in µM)

{"columns": ["molecule", "log10 TGI"],
 "data": [
  ["Cc1cc2c3ccc(C)[n+](C)c3ccc2n1C", 0.58],
  ["NC(=O)NN=C(CS)CS", 1.37],
  ["O=S(=O)(Sc1ccc(Cl)cc1)c1ccc(Cl)cc1", 1.54],
  ["C=C1CC2OC2(C(=O)O[C@H]2CCC3[C@@H]4CCC5=CC(=O)CC[C@]5(C)C4CC[C@@]32C)C1=O (some centres not stated)", 1.49],
  ["C=CC(=O)N(C)[C@H]1C[C@H]2OC(C)(C1OC)n1c3ccccc3c3c4c(c5c6ccccc6n2c5c31)C(=O)NC4 (some centres not stated)", -0.74]
]}

---

- Test system: MCF7 breast
- assay-name: NCI tumour cell line growth inhibition, 48 h; in the data active = GI50 below about 0.43 µM; inactive = the rest
Labels: active, inactive

{"columns": ["compound", "class"],
 "data": [
  ["N#Cc1c(N/N=C/c2c(Cl)cccc2Cl)nc(N)nc1N1CCOCC1", "inactive"],
  ["Clc1cc(Cl)c(OCC#CI)cc1Cl", "inactive"],
  ["COc1cc2nc(N3CCCC3)nc(NCC3CCCCC3)c2cc1OC", "inactive"],
  ["CC(=O)C(O)N1C(=O)C=CC1=O (stereo unspecified)", "inactive"],
  ["COC(=O)Cn1c2c(c3c(O)cccc31)C(=O)c1ccccc1-2", "inactive"],
  ["Cc1cc2c3ccc(C)[n+](C)c3ccc2n1C", "inactive"],
  ["Cn1c2c(cc(S(=O)(=O)c3ccccc3)c1=O)CCc1c-2cnn1-c1ccc(Cl)cc1", "inactive"],
  ["O=C1c2ccccc2-c2c1c1ccc([N+](=O)[O-])cc1c(=O)n2CCCBr", "active"],
  ["CC(C)(C)c1n[nH]c(=S)n(/N=C/c2ccc(F)c(Oc3ccccc3)c2)c1=O", "inactive"],
  ["COc1cc2c(cc1OCCCCOc1cc3c(cc1OC)C(=O)N1CCC[C@H]1CN3)N=C[C@@H]1CCCN1C2=O", "active"],
  ["O=c1[nH]c2ccccc2nc1-c1c[nH]c2ccccc12", "inactive"]
]}

---

Reported TGI is given for each of the following compounds.
- System: SNB-78 CNS
- assay-name: NCI tumour cell line growth inhibition, 48 h
parameter-measured: TGI

{"columns": ["compound", "parameter-measured", "measured"],
 "data": [
  ["CN(C)CCCNc1ccc2ncn3c4ccccc4c(=O)c1c23", "TGI", "78.7 µM"],
  ["O=C1C=C(Br)c2c(-c3ccccc3)oc3cccc1c23", "TGI", "> 100 µM"],
  ["Cc1c(C#N)c(=O)[nH]c(=O)n1CCN1CCN(C(=O)NCCCCCCNC(=O)N2CCN(CCn3c(C)c(C#N)c(=O)[nH]c3=O)CC2)CC1", "TGI", "> 100 µM"],
  ["CCOC(=O)C(=O)Nc1c(CC)cccc1C(C)C", "TGI", "> 100 µM"],
  ["CCOC(=O)c1oc2ccc(OC)c3c2c1CCC3", "TGI", "> 100 µM"],
  ["CCO[C@]12C[C@H](OC)[C@@]3(O)CC(C1[C@H]3OCc1ccccc1)C13C4C2[C@H](OC)C1[C@](COC)(CN4CC)[C@H](O)C[C@@H]3OC (stereo partly drawn)", "TGI", "> 100 µM"],
  ["O=C(O)C1(P(=O)(O)O)CC1", "TGI", "> 100 µM"],
  ["Cc1cc2c(C)n(Cc3ccc(Cl)cc3Cl)nc2c(C#N)c1C", "TGI", "> 76.4 µM"],
  ["CS(=O)(=O)Oc1cccc(/C=N/N=C(\\N)NO)c1", "TGI", "> 100 µM"],
  ["CCOC(=O)c1nc2ccc([N+](=O)[O-])cc2c2c1CCO2", "TGI", "> 100 µM"],
  ["Cn1c(/C=C(\\O)c2ccc(Cl)cc2)nc2ccccc21", "TGI", "> 100 µM"],
  ["CN(C)CCCNC(=O)N/N=C/c1cccc([N+](=O)[O-])c1", "TGI", "> 100 µM"],
  ["O=C1C(=O)N(c2ccc(Cl)c(Cl)c2)C(=O)C(=O)C1c1nc2ccccc2s1", "TGI", "> 100 µM"]
]}

---

- Tested on: NCI-H522 lung
- assay-name: NCI tumour cell line growth inhibition, 48 h
Could you label it Yes if measured TGI is 30 µM or higher, and No otherwise?

{"columns": ["compound", "test-target", "class"],
 "data": [
  ["N#CC(C(=O)CCC(=O)Nc1cccc(Cl)c1)c1ccccc1 (stereo unspecified)", "NCI-H522 lung", "Yes"],
  ["CS(=O)(=O)Oc1cccc(/C=N/N=C(\\N)NO)c1", "NCI-H522 lung", "Yes"],
  ["N=C(N)c1ccc(N2CCCN(c3ccc(C(=N)N)cc3)CC2)cc1", "NCI-H522 lung", "Yes"],
  ["CNC(=O)N1CN(c2ccccc2)C2(CCN(CCCC(=O)c3ccc(F)cc3)CC2)C1=O", "NCI-H522 lung", "Yes"],
  ["Cc1ccc(N2C(=O)C3c4[nH]c5ccccc5c4C4CCC(C(C)(C)C)CC4C3C2=O)cc1 (stereo unspecified)", "NCI-H522 lung", "No"],
  ["CC1C(c2ccccc2)OP(=O)(OC(C#N)c2ccccc2)N1C (stereo unspecified)", "NCI-H522 lung", "Yes"],
  ["Cc1cc2c(C)n(Cc3ccc(Cl)cc3Cl)nc2c(C#N)c1C", "NCI-H522 lung", "Yes"],
  ["CCC1(CC)CC(=NNS(=O)(=O)c2ccc(C)cc2)C1", "NCI-H522 lung", "Yes"],
  ["C/C(=N\\Nc1ccc2ccccc2n1)c1ccccn1", "NCI-H522 lung", "No"],
  ["CCCCNCC(=O)O[C@]1(CC)C(=O)OCc2c1cc1n(c2=O)Cc2cc3ccccc3nc2-1", "NCI-H522 lung", "No"]
]}

---

- System: MDA-N
- assay-name: NCI tumour cell line growth inhibition, 48 h

{"columns": ["compound", "reported-relation", "TGI [µM]"],
 "data": [
  ["CN(C)CCNc1nc(-c2ccc3ccccc3c2)nc2nc[nH]c12", "=", 23.2],
  ["CCC(NC(C)c1ccccc1)C(O)c1ccc(OCc2ccccc2)c(OCc2ccccc2)c1 (stereo not given)", "=", 30.3],
  ["Cc1ccc(N2C(=O)C3c4[nH]c5ccccc5c4C4CCC(C(C)(C)C)CC4C3C2=O)cc1 (stereo not given)", "=", 44.1],
  ["Fc1ccc2nc3n(c2c1)C(c1c(F)cccc1F)SC3 (stereo not given)", "=", 85.3],
  ["CN1CCCCC1CCN1CCCCC1 (stereo not given)", ">", 100],
  ["COc1c2c(cc3oc(C)cc(=O)c13)OC(=N)C(C(N)=O)C2CC(=O)c1ccc(N)cc1 (stereo not given)", ">", 100],
  ["C=CCOC(=O)/C(=C\\c1ccc(OC)c(OC)c1)c1ccc(OC)c(OC)c1", ">", 100],
  ["COc1ccc(N2C(=O)C3c4[nH]c5ccc(C)cc5c4C4CCC(C)CC4C3C2=O)cc1 (stereo not given)", ">", 100],
  ["COC(=O)C1=CSC2(S1)C(C(=O)OC)=CSc1c2ssc1=Nc1ccccc1 (stereo not given)", ">", 100],
  ["Cc1ccc(-c2nc3ccc(Cl)cc3[nH]2)cc1", ">", 100]
]}

---

- Test system: RPMI-8226 leukemia
- assay-name: NCI tumour cell line growth inhibition, 48 h; in the data active means GI50 below about 0.43 µM; inactive means the rest
Labels: label 1 (active), label 0 (inactive)

{"columns": ["compound", "class"],
 "data": [
  ["COc1cc2c(c(OC)c1OC)-c1ncc3cc(OC)c(OC)c(OC)c3c1C2", "label 0"],
  ["COc1cccc(NC(=O)c2sc3nc4c(cc3c2N)CN(Cc2ccccc2)CC4)c1", "label 0"],
  ["N/C(=N\\N=C\\c1ccc(-c2ccccc2)cc1)N[N+](=O)[O-]", "label 0"],
  ["COc1ccc(-c2n[nH]nc2-c2cc(OC)c3c(c2OC)OCO3)cc1", "label 0"],
  ["Clc1cc(Cl)c(OCC#CI)cc1Cl", "label 0"],
  ["c1ccc2c(c1)c(NCCCCN1CCCCC1)cc1c3ccccc3c(NCCCCN3CCCCC3)cc21", "label 0"],
  ["COc1ccc2cc(-c3ccoc(=O)c3-c3cc(OC)c(OC)c(OC)c3)ccc2c1", "label 1"],
  ["C[C@]12CC[C@H]3[C@@H](CCC4=CC(=O)CC[C@@H]43)[C@@H]1CC[C@@H]2OC(=O)CCc1ccccc1", "label 0"],
  ["COC(=O)C(Cc1ccccc1)NC(=O)NC(=O)NC(=O)CI (stereo not given)", "label 0"],
  ["Cc1ccc(NC(=O)/C=C/c2ccccc2)c(C(N)=O)c1", "label 0"]
]}

The origin of these recorded values is PubChem BioAssay (NCI).
